Values from ChEMBL document CHEMBL2163300

Target: MAP kinase-activated protein kinase 2 (Homo sapiens, UniProt P49137)
Sequence (P49137 whole entry): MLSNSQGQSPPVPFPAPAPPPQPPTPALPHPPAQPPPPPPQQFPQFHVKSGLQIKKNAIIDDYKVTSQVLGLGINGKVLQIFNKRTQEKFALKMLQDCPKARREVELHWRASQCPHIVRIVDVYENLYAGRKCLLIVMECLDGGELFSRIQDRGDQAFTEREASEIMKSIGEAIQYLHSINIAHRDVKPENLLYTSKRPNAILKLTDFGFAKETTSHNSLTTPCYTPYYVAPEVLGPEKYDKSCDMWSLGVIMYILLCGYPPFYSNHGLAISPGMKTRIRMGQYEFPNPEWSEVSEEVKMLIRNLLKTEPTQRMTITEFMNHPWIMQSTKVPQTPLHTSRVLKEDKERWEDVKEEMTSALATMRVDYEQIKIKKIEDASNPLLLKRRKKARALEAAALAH
Test: Inhibition of MAPKAP-K2 using KKLNRTLSVA as substrate and [33P]-gamma-ATP after 30 mins by liquid scintillation counter
Listed below: IC50 values for each entry.

Some solved entries appear below for comparison.
>>> recorded_value("CCN(CC)[C@H]1CC[C@H](Nc2cc(Nc3ccc(F)c(Cl)c3)n3nccc3n2)CC1")
"> 100 µM"
>>> recorded_value("Nc1ccc(Nc2cc(Nc3ccc(F)c(Cl)c3)n3nccc3n2)cc1")
"> 100 µM"

stdin: Query (compound): NC1CCCC(Nc2cc(Nc3ccc(F)c(Cl)c3)n3nccc3n2)C1 (stereo not drawn) ; field requested: IC50
stdout: > 100 µM
